B1: glmS ribozyme (parent)
chain: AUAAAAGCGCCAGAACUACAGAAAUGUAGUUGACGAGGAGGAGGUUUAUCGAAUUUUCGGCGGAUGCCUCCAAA

Variants of: B1
PROTOCOL_NOTES: self-cleavage kobs at 2500 uM GlcN6P; higher = faster cleavage; RNA array
CONDITIONS: with glucosamine-6-phosphate
This sample holds only a part of the variants without activity.
Label Met when self-cleavage kobs at 2500 uM GlcN6P is at or above 0.0003 s⁻¹; anything below gets Not met.

QUERY: Please indicate if the recorded self-cleavage kobs at 2500 uM GlcN6P for AUAAAAGCGCCAGAACUACAGAAAUGUAGUUGACGAUGAGGAGGUUUAUCGACUUUUCGGCGGAUGCCUCCAAA [G37U A53C] meets or exceeds 0.0003 s⁻¹.
RESULT: Not met

QUERY: Record AUAAAAGCGCCAGAAAUACAGAAAUGUAGUUGACAAGGAGGAAGUUUAUCGAAUUUUCGGCGGAUGCCUCCAAA [C16A G35A G43A] ; criterion: self-cleavage kobs at 2500 uM GlcN6P no lower than 0.0003 s⁻¹. Met?
RESULT: Not met

QUERY: For this variant, is measured self-cleavage kobs at 2500 uM GlcN6P 0.0003 s⁻¹ or higher? AUAAAAGCGCCAGAACUACAGAAAUGUAGUUGACGAGGAGGAGGUGAAUCGAAUUUUCGGCGGAUGCCUCCAAA [U46G U47A]
RESULT: Met

QUERY: In plain terms: is recorded self-cleavage kobs at 2500 uM GlcN6P at least 0.0003 s⁻¹ for AUAAAAGCGCCAGAACUACAGAAAUGUAGUUGACGAGGAGGAGGUUUAUCGGAUUUUCGGCGGAUGCCUGCAAA [A52G C70G] ?
RESULT: Not met

QUERY: # check: self-cleavage kobs at 2500 uM GlcN6P of AUAAAAGCGCCAGAACUACAGAAAUGUAGUUGACGAGGAGGAGGUUUAUCGAUCAUUCGGCGGGUGCCUCCAAA [A53U U54C U55A A64G] is greater than or equal to 0.0003 s⁻¹
RESULT: Met

QUERY: Check this variant for self-cleavage kobs at 2500 uM GlcN6P at or above 0.0003 s⁻¹: AUAAAAGAGCCAGAACUACAGAAAUGUAGUUGACGAGGAGGAGGUUUAUCGAAUUUUCGGGGGGUGCCUCCAAA [C8A C61G A64G]
RESULT: Not met

QUERY: Please check the record AUAAAAGCGCCAGAACUACAGAAAUGUAGUUGACGAGGAGGCGGUUUAUCGAAUUUUCGGCGGAUGGCUCCAAA [A42C C67G] and state if its self-cleavage kobs at 2500 uM GlcN6P is at or above 0.0003 s⁻¹.
RESULT: Not met

QUERY: API: above_or_equal(metric=self-cleavage kobs at 2500 uM GlcN6P, cutoff=0.0003 s⁻¹) for item AUAAAAGCCCCAGAGCUACAGAAAUGUAGUUGACGAGCAGGAGGUUUAUCGAAUUUUCGACGGAUGCCUCCAAA [G9C A15G G38C G60A]
RESULT: Not met

Each recorded value in this set is attributed to the supplement of paper PMC7125110.
